Values were extracted from PubChem BioAssay AID248.

tested on: L1210 leukemia ip in BDF1 mice, survival T/C; test: NCI In Vivo Anticancer Drug Screen. Data for tumor model L1210 Leukemia (intraperitoneal) in B6D2F1 (BDF1) mice; conditions: endpoint: mean survival time; dose: 400.0 mg/kg/injection; schedule: Q01DX001 (ip); vehicle: Klucel (hydroxypropylcellulose) (HPC); higher = longer survival
Inconclusive results and toxic doses are left out.
assay_metric: T/C

Use the examples below as a reference point.
1) O=S(=O)(Cc1ccccc1)Nc1cccc(S(=O)(=O)OCc2ccccc2)c1 = 106 % of control
2) OC1(c2ccc(Cl)cc2)CCN(C2CC2c2ccccc2)CC1 (stereo unspecified) = 98 % of control
3) O=P1(c2ccccc2)CCc2[nH]c3ccc(F)cc3c2C1 (stereo unspecified) = 98 % of control
4) O=C(O)C1=CC2CC1C1CC(C(=O)O)CC21 (stereo unspecified) = 103 % of control

For this compound ( O=S(=O)(OC1CC2C=CC1C21CC1)c1ccc(Br)cc1 (stereo unspecified) ), measured T/C is 94 % of control

Note to self: T/C recorded for `CCOC(=O)N/N=C/c1ccccc1` was 118 % of control

Recorded T/C (compound O=c1oc2ccc(Cl)cc2c2c1OC(c1ccccc1)CN2 (stereo unspecified) ): 91 % of control

// T/C value for `c1ccc2cc(C3OCC4(CCCCC4)CO3)ccc2c1` : 100 % of control
